Entry source: paper PMC11505670

# Test system: HCT-116 cells
# assay: MTT cytotoxicity assay, HCT-116
# Assay type: cell-based, human
# particulars: HCT-116, 72 h; IC50 healthy cells (MRC-5)/IC50 tumor cells
property_label: Selectivity index (SI)

Please review the following examples before continuing.
# molecule, value_measured
rows = [
    ("COc1cc(/C=C/C(=O)C(C)C)ccc1OCC(=O)O [E2]", 100.63),
    ("COc1cc(/C=C/C(=O)CC(C)C)ccc1OCC(=O)O", 42.68),
    ("COc1cc(/C=C/C(=O)C2CC2)ccc1OCC(=O)O", 40.00),
]

What does the record list as Selectivity index (SI) for COc1cc(/C=C/C(C)=O)ccc1OCC(=O)O [E1] ?
58.03

---

# Tested on: HCT-116 cells
# assay: MTT cytotoxicity assay, HCT-116
# Assay type: cell-based, human
# particulars: Homo sapiens; HCT-116, 48 h, MTT
property_label: pIC50
pIC50 is a log-scale quantity: -log10 of the concentration expressed in molar.

Illustrative cases are given below, each with its answer.
# compound, measurement_target, pIC50
rows = [
    ("COc1cc(/C=C/C(=O)C2CC2)ccc1OCC(=O)O", "HCT-116 cells", 5.03),
    ("COc1cc(/C=C/C(=O)C(C)C)ccc1OCC(=O)O [E2]", "HCT-116 cells", 5.29),
    ("COc1cc(/C=C/C(=O)CC(C)C)ccc1OCC(=O)O", "HCT-116 cells", 5.17),
]

Let us examine a further case.
What measured pIC50 is associated with COc1cc(/C=C/C(C)=O)ccc1OCC(=O)O [E1] on HCT-116 cells?
5.22

---

A collection of molecules and their measured Cytotoxicity range
# Tested on: HeLa cells
# assay: MTT cytotoxicity assay, HeLa
# Type: cell-based, human
# particulars: 48 h, concentration range 1–100 μM

Some molecules with known Cytotoxicity range results, for comparison:
# molecule, Cytotoxicity range
records = [
    ("COc1cc(/C=C/C(C)=O)ccc1OCC(=O)O [E1]", "3.12–39.24%"),
    ("COc1cc(/C=C/C(=O)CC(C)C)ccc1OCC(=O)O", "5.47–33.95%"),
    ("COc1cc(/C=C/C(=O)C(C)C)ccc1OCC(=O)O [E2]", "4.74–51.94%"),
]

Now for another entry.
What value of measured Cytotoxicity range is listed for COc1cc(/C=C/C(=O)C2CC2)ccc1OCC(=O)O ?
12.12–60.72%

---

# Test system: HCT-116 cells
# assay: MTT cytotoxicity assay, HCT-116
# Type: cell-based, human
# particulars: HCT-116, 72 h, concentration range 1–100 μM
# Description: To examine and compare the antiproliferative activities of four enones, the cytotoxicity of the compounds was assessed by the 3-(4,5-dimethylthiazol-2-yl)-2,5-diphenyltetrazolium bromide (MTT) assay[9] in, colon cancer cells (HCT-116), cervical cancer cell line (HeLa) and human fibroblast lung cell line (MRC-5) that was used as a healthy control cell line. […]
Below is a list of entries, each paired with its recorded Cytotoxicity range value.

# compound, Cytotoxicity range
data = [
    ("COc1cc(/C=C/C(=O)C2CC2)ccc1OCC(=O)O", "65.85–71.44%"),
    ("COc1cc(/C=C/C(=O)C(C)C)ccc1OCC(=O)O [E2]", "65.23–72.73%"),
    ("COc1cc(/C=C/C(C)=O)ccc1OCC(=O)O [E1]", "65.85–73.44%"),
]

--- query ---
Notebook: pull reported Cytotoxicity range for HCT-116 cells, entry COc1cc(/C=C/C(=O)CC(C)C)ccc1OCC(=O)O
66.85–70.44%
